method: xn = mol fraction of the nth substance listed, in the solute-free solvent
test_settings: 323.15 K; x2 = 0.2
measured_attribute: solubility (g/100 g solution)
Reply briefly: the number, and no unit.

Request: Hello, please tell me recorded solubility (g/100 g solution) for this one: CCCCOc1ccc(C(=O)CCN2CCCCC2)cc1.Cl + CCO + O
Response: 64.5

Request: Hello, please tell me recorded solubility (g/100 g solution) for this one: CCCCOc1ccc(C(=O)CCN2CCCCC2)cc1.Cl + CO + C1CCOC1
Response: 21.1

Request: Hello, please tell me recorded solubility (g/100 g solution) for this one: CCCCOc1ccc(C(=O)CCN2CCCCC2)cc1.Cl + CCO + CCOC(C)=O
Response: 23.2

Request: Hello, please tell me recorded solubility (g/100 g solution) for this one: O=C(O)c1ccc(C(=O)O)o1 + C1CCOC1 + O
Response: 5.38

Request: Hello, please tell me recorded solubility (g/100 g solution) for this one: COC1=CC(=O)CC(C)C12Oc1c(Cl)c(OC)cc(OC)c1C2=O (configuration not stated) + CC(=O)CC(C)C + CC(C)O
Response: 1.01

Request: Hello, please tell me recorded solubility (g/100 g solution) for this one: O=C(O)c1ccc(C(=O)O)o1 + C1COCCO1 + O
Response: 4.28

Request: Hello, please tell me recorded solubility (g/100 g solution) for this one: COC1=CC(=O)CC(C)C12Oc1c(Cl)c(OC)cc(OC)c1C2=O (configuration not stated) + CC(C)=O + CC(C)O
Response: 1.3

Request: Hello, please tell me recorded solubility (g/100 g solution) for this one: O=C(O)c1ccc(C(=O)O)o1 + O + COCCOCCOC
Response: 2.46

Request: Hello, please tell me recorded solubility (g/100 g solution) for this one: O=C(O)C1CSCN1 (configuration not stated) + O + CC#N
Response: 0.0734

Request: Hello, please tell me recorded solubility (g/100 g solution) for this one: CCCCOc1ccc(C(=O)CCN2CCCCC2)cc1.Cl + CCO + CCCCCC
Response: 13.8

Request: Hello, please tell me recorded solubility (g/100 g solution) for this one: COC1=CC(=O)CC(C)C12Oc1c(Cl)c(OC)cc(OC)c1C2=O (configuration not stated) + CCC(C)=O + CC(C)O
Response: 1.26

Request: Hello, please tell me recorded solubility (g/100 g solution) for this one: O=C(O)c1ccc(C(=O)O)o1 + O + COCCOC
Response: 3.16

====

method: xn = mol fraction of the nth substance listed, in the solute-free solvent
test_settings: 293.15 K; x2 = 0.8
Parameter class (string): assigned from measured solubility (g/100 g solution). Ranges: low bin (below 3), mid bin (3 to below 30), high bin (30 or more)

Request: For CC(=O)OC(c1ccccc1)C(Cl)(Cl)Cl (stereo not given) + CC(C)O + O , which solubility (g/100 g solution) bin applies?
Response: mid bin

Request: For O=C(O)c1ccc(C(=O)O)o1 + C1CCOC1 + O , which solubility (g/100 g solution) bin applies?
Response: mid bin

Request: For CCCCOc1ccc(C(=O)CCN2CCCCC2)cc1.Cl + CO + C1CCOC1 , which solubility (g/100 g solution) bin applies?
Response: high bin

Request: For CCCCOc1ccc(C(=O)CCN2CCCCC2)cc1.Cl + CCO + CCCCCC , which solubility (g/100 g solution) bin applies?
Response: high bin

Request: For CCCCOc1ccc(C(=O)CCN2CCCCC2)cc1.Cl + CCO + CCOC(C)=O , which solubility (g/100 g solution) bin applies?
Response: high bin

Request: For CC(=O)OC(c1ccccc1)C(Cl)(Cl)Cl (stereo not given) + CC(=O)O + O , which solubility (g/100 g solution) bin applies?
Response: mid bin

Request: For O=C1CCc2ccc(OCCCCN3CCN(c4cccc(Cl)c4Cl)CC3)cc2N1 + CCC(C)=O + CCOC(C)=O , which solubility (g/100 g solution) bin applies?
Response: low bin

Request: For CCCCOc1ccc(C(=O)CCN2CCCCC2)cc1.Cl + CCO + O , which solubility (g/100 g solution) bin applies?
Response: high bin

Request: For COC1=CC(=O)CC(C)C12Oc1c(Cl)c(OC)cc(OC)c1C2=O (stereo not given) + CCC(C)=O + CC(C)O , which solubility (g/100 g solution) bin applies?
Response: low bin

====

Please respond with reported solubility (g/100 g solution) for every item in the list.
method: xn = mol fraction of the nth substance listed, in the solute-free solvent
test_settings: 283.15 K; x2 = 0.7
Reply briefly: the number, and no unit.

Request: Hello, please tell me recorded solubility (g/100 g solution) for this one: O=C1CCc2ccc(OCCCCN3CCN(c4cccc(Cl)c4Cl)CC3)cc2N1 + CCC(C)=O + CCOC(C)=O
Response: 1.13

Request: Hello, please tell me recorded solubility (g/100 g solution) for this one: COC1=CC(=O)CC(C)C12Oc1c(Cl)c(OC)cc(OC)c1C2=O (stereo unspecified) + CC(C)=O + CC(C)O
Response: 1.81

Request: Hello, please tell me recorded solubility (g/100 g solution) for this one: O=C(O)C1CSCN1 (stereo unspecified) + O + CC#N
Response: 0.573

Request: Hello, please tell me recorded solubility (g/100 g solution) for this one: CCCCOc1ccc(C(=O)CCN2CCCCC2)cc1.Cl + CO + C1CCOC1
Response: 33.5

Request: Hello, please tell me recorded solubility (g/100 g solution) for this one: CCCCOc1ccc(C(=O)CCN2CCCCC2)cc1.Cl + CCO + CCCCCC
Response: 22.4

Request: Hello, please tell me recorded solubility (g/100 g solution) for this one: COC1=CC(=O)CC(C)C12Oc1c(Cl)c(OC)cc(OC)c1C2=O (stereo unspecified) + CC(=O)CC(C)C + CC(C)O
Response: 0.642

Request: Hello, please tell me recorded solubility (g/100 g solution) for this one: CCCCOc1ccc(C(=O)CCN2CCCCC2)cc1.Cl + CCO + O
Response: 35.1

Request: Hello, please tell me recorded solubility (g/100 g solution) for this one: CCCCOc1ccc(C(=O)CCN2CCCCC2)cc1.Cl + CCO + CCOC(C)=O
Response: 23.2

Request: Hello, please tell me recorded solubility (g/100 g solution) for this one: O=C1CCc2ccc(OCCCCN3CCN(c4cccc(Cl)c4Cl)CC3)cc2N1 + CCC(C)=O + CC(C)=O
Response: 1.38

Request: Hello, please tell me recorded solubility (g/100 g solution) for this one: COC1=CC(=O)CC(C)C12Oc1c(Cl)c(OC)cc(OC)c1C2=O (stereo unspecified) + CCC(C)=O + CC(C)O
Response: 1.5

Request: Hello, please tell me recorded solubility (g/100 g solution) for this one: O=C1CCc2ccc(OCCCCN3CCN(c4cccc(Cl)c4Cl)CC3)cc2N1 + CCC(C)=O + CCCO
Response: 2.21

====

Please respond with reported solubility (g/100 g solution) for every item in the list.
method: xn = mol fraction of the nth substance listed, in the solute-free solvent
test_settings: 288.15 K; x2 = 0.3
Reply briefly: the number, and no unit.

Request: Hello, please tell me recorded solubility (g/100 g solution) for this one: O=C1CCc2ccc(OCCCCN3CCN(c4cccc(Cl)c4Cl)CC3)cc2N1 + CCC(C)=O + CCOC(C)=O
Response: 1.04

Request: Hello, please tell me recorded solubility (g/100 g solution) for this one: COC1=CC(=O)CC(C)C12Oc1c(Cl)c(OC)cc(OC)c1C2=O (stereo unspecified) + CCC(C)=O + CC(C)O
Response: 0.571

Request: Hello, please tell me recorded solubility (g/100 g solution) for this one: O=C1CCc2ccc(OCCCCN3CCN(c4cccc(Cl)c4Cl)CC3)cc2N1 + CCC(C)=O + CCCO
Response: 1.88

Request: Hello, please tell me recorded solubility (g/100 g solution) for this one: O=C1CCc2ccc(OCCCCN3CCN(c4cccc(Cl)c4Cl)CC3)cc2N1 + CCC(C)=O + CC(C)=O
Response: 1.34

Request: Hello, please tell me recorded solubility (g/100 g solution) for this one: COC1=CC(=O)CC(C)C12Oc1c(Cl)c(OC)cc(OC)c1C2=O (stereo unspecified) + CC(C)=O + CC(C)O
Response: 0.663

Request: Hello, please tell me recorded solubility (g/100 g solution) for this one: CCCCOc1ccc(C(=O)CCN2CCCCC2)cc1.Cl + CCO + CCOC(C)=O
Response: 12

Request: Hello, please tell me recorded solubility (g/100 g solution) for this one: CCCCOc1ccc(C(=O)CCN2CCCCC2)cc1.Cl + CO + C1CCOC1
Response: 14.9

Request: Hello, please tell me recorded solubility (g/100 g solution) for this one: COC1=CC(=O)CC(C)C12Oc1c(Cl)c(OC)cc(OC)c1C2=O (stereo unspecified) + CC(=O)CC(C)C + CC(C)O
Response: 0.405

Request: Hello, please tell me recorded solubility (g/100 g solution) for this one: CCCCOc1ccc(C(=O)CCN2CCCCC2)cc1.Cl + CCO + CCCCCC
Response: 9.72

Request: Hello, please tell me recorded solubility (g/100 g solution) for this one: CCCCOc1ccc(C(=O)CCN2CCCCC2)cc1.Cl + CCO + O
Response: 39.6

Request: Hello, please tell me recorded solubility (g/100 g solution) for this one: CC(=O)OC(c1ccccc1)C(Cl)(Cl)Cl (stereo unspecified) + CC(C)O + O
Response: 0.121
